- Test System: T1, recombinant human OX40L (extracellular domain, R&D Systems) (human, UniProt P23510 51-183)
- T1 construct: also called hOX40L; rec. hOX40L
- T1 sequence: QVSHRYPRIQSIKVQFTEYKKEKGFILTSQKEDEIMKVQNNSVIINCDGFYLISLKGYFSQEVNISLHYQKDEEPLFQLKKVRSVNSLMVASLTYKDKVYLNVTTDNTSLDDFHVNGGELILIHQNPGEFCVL
- Assay Info: SPR, second injection after competitor OX40L15B07

[
  {
    "Binder": "OX40L18E09 (VHH, monovalent Nanobody from E. coli; not shown: C-terminal c-myc and His6 tag) VHH: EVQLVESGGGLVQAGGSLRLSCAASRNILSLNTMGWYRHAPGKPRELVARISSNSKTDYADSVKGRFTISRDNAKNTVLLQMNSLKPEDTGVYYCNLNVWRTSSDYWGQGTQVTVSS",
    "Units Symbol": "RU",
    "Binding Level sample 2 - sample 1 (RU)": 11
  },
  {
    "Binder": "OX40L15B07 (VHH, monovalent Nanobody from E. coli; not shown: C-terminal c-myc and His6 tag) VHH: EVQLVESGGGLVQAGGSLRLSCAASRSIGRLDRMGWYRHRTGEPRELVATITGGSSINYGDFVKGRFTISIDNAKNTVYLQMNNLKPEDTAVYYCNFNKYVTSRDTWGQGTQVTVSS",
    "Units Symbol": "RU",
    "Binding Level sample 2 - sample 1 (RU)": 5
  },
  {
    "Binder": "OX40L01E07 (VHH, monovalent Nanobody from E. coli; not shown: C-terminal c-myc and His6 tag) VHH: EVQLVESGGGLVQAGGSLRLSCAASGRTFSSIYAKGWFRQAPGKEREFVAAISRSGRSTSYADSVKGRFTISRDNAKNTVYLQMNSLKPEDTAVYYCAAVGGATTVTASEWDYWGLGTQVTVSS",
    "Units Symbol": "RU",
    "Binding Level sample 2 - sample 1 (RU)": 55
  },
  {
    "Binder": "OX40L19A07 (VHH, monovalent Nanobody from E. coli; not shown: C-terminal c-myc and His6 tag) VHH: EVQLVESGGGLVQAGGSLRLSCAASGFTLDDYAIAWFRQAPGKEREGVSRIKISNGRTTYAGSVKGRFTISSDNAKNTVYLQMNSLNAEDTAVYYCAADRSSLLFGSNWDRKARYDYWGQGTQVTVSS",
    "Units Symbol": "RU",
    "Binding Level sample 2 - sample 1 (RU)": 9
  }
]
